Assay: Inhibition of P-gp mediated doxorubicin resistance in human SW620/AD300 cells overexpressing P-gp in presence of doxorubicin measured after 52 hrs by MTT assay
readout-type: IC50 (nM)

structure	IC50 (nM)
C[C@@H]1O[C@@H](CC(=O)O)C(=O)c2c1c(O)c1c3c(c4n(c23)[C@H]([C@@H](C)O)CC4)C=CC1=O	1480
C[C@H]1O[C@H](CC(=O)O)Cc2c1c(O)c1c3c(c4n(c23)[C@@H]([C@@H](C)O)CC4)C=CC1=O	1530

I: C[C@@H]1OC(CC(=O)O)=Cc2c1c(O)c1c3c(c4n(c23)[C@H]([C@@H](C)O)CC4)C=CC1=O
II: C[C@@H](O)[C@@H]1CCc2c3c4c(c(O)c(O)c(C[C@@H](O)CC(=O)O)c4n21)C(=O)C=C3
Hi, I'm comparing two records. Which one has the lower IC50, I or II ? The response must carry the label of the picked entry.
I
(I: 1010 nM, II: 4490 nM)

###

Assay: Inhibition of P-gp mediated doxorubicin resistance in human SW620/AD300 cells overexpressing P-gp in presence of doxorubicin measured after 52 hrs by MTT assay
pIC50: −log10 of the molar value.
readout-type: pIC50

Recorded pIC50, per entry:
structure	result-number
C[C@H]1OC(CC(=O)O)=Cc2c1c(O)c1c3c(c4n(c23)[C@H]([C@@H](C)O)CC4)C=CC1=O	5.84
C[C@H]1O[C@]2(C)CC(=O)O[C@]2(C)c2c1c(O)c1c3c(c4n(c23)[C@@H]([C@@H](C)O)CC4)C=CC1=O	5.12

I: C[C@H]1Oc2c(O)c3c4c(c5n(c4c2C[C@H](CC(=O)O)O1)[C@H]([C@@H](C)O)CC5)C=CC3=O
II: COC(=O)C[C@H]1Cc2c(c(O)c3c4c(c5n(c24)[C@H]([C@@H](C)O)CC5)C=CC3=O)[C@H](C)O1
Hi, I'm comparing two records. Which one has the lower pIC50, I or II ? The response must carry the label of the picked entry.
I
(I: 5.30, II: 5.92)
